target: Phosphatidylinositol 4,5-bisphosphate 3-kinase catalytic subunit beta isoform (Homo sapiens); assay: Inhibition of PI3Kbeta (unknown origin) incubated for 60 mins in the presence of ATP by Kinase-Glo luminescence assay
Sequence (P42338 whole entry, canonical isoform): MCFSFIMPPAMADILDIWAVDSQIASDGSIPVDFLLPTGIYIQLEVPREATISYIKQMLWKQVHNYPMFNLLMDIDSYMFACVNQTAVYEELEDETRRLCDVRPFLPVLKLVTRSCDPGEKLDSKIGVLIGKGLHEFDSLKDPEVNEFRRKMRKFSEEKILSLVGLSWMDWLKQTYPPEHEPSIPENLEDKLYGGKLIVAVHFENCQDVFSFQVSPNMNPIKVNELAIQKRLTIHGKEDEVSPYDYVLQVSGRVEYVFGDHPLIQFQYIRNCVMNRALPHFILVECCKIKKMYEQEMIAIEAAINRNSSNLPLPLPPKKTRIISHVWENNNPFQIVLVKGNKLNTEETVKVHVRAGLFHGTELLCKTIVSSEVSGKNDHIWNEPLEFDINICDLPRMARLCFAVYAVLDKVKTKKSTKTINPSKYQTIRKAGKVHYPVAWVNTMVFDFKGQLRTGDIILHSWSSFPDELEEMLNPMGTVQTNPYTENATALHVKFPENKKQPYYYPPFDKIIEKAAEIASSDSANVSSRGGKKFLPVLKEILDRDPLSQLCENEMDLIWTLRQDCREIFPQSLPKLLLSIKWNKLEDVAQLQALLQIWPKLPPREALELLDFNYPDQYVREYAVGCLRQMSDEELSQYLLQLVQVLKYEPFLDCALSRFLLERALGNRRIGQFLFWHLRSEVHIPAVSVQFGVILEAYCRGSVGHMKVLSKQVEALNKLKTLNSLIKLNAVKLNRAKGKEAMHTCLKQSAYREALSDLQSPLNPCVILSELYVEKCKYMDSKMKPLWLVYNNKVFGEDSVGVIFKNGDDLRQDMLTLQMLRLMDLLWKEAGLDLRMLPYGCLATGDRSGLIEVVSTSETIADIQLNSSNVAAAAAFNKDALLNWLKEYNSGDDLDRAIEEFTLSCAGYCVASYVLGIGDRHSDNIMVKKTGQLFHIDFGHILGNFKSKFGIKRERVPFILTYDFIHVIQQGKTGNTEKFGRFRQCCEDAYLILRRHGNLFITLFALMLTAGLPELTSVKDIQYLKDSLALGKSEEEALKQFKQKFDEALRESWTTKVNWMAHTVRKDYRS
pIC50: −log10 of the molar value.
Observed Property: pIC50

1) Cc1cc(C(C)Nc2ccc(F)c(F)c2)c2oc(N3CCOCC3)nc(=O)c2c1 (centres undefined) | 7.20
2) Cc1cc(C(C)Oc2ccccc2)c2oc(N3CCOCC3)nc(=O)c2c1 (centres undefined) | 5.85
3) Cc1cc(C(C)Nc2cccc(Cl)c2)c2oc(N3CCOCC3)nc(=O)c2c1 (centres undefined) | 7.14
4) COc1cccc(OC(C)c2cc(C)cc3c(=O)nc(N4CCOCC4)oc23)c1 (centres undefined) | 5.73
5) Cc1cc(C(C)Nc2cc(F)cc(F)c2)c2oc(N3CCOCC3)nc(=O)c2c1 (centres undefined) | 6.82
6) Cc1cccc(OC(C)c2cc(C)cc3c(=O)nc(N4CCOCC4)oc23)c1 (centres undefined) | 5.61
7) Cc1cc(C(C)Oc2ccccc2C)c2oc(N3CCOCC3)nc(=O)c2c1 (centres undefined) | 6.64
8) Cc1cc(C(C)Nc2c(F)cccc2F)c2oc(N3CCOCC3)nc(=O)c2c1 (centres undefined) | 5.91
9) Cc1cc(C(C)Nc2ccccc2Cl)c2oc(N3CCOCC3)nc(=O)c2c1 (centres undefined) | 6.87
10) Cc1cc(C(C)Nc2ccc(F)cc2F)c2oc(N3CCOCC3)nc(=O)c2c1 (centres undefined) | 6.55
11) Cc1cc(C(C)Nc2cc(F)ccc2F)c2oc(N3CCOCC3)nc(=O)c2c1 (centres undefined) | 7.15
12) Cc1cc(C(C)Nc2cccc3ccccc23)c2oc(N3CCOCC3)nc(=O)c2c1 (centres undefined) | 7.31
13) Cc1cc(C(C)Nc2cccc(Cl)c2F)c2oc(N3CCOCC3)nc(=O)c2c1 (centres undefined) | 6.57
14) Cc1cc(C(C)Nc2ccc(Br)cc2)c2oc(N3CCOCC3)nc(=O)c2c1 (centres undefined) | 4.90
15) Cc1cc(C(C)Nc2ccccc2)c2oc(N3CCOCC3)nc(=O)c2c1 (centres undefined) | 6.62

* * *

target: DNA-dependent protein kinase catalytic subunit (Homo sapiens); test: Inhibition of DNA-PK (unknown origin) in the presence of ATP
Observed Property: IC50

1) Cc1cc(C(C)Nc2ccccc2)c2oc(N3CCOCC3)cc(=O)c2c1 (stereo unspecified) | 120 nM
